# credit: patent US4888335A

tested on: spontaneously hypertensive rats (mean arterial pressure); test: Spontaneously Hypertensive Rat (SHR) test, fall in mean arterial pressure; assay type: in vivo; details: 30 mg/kg p.o.; active if fall >15 mm of Hg
measured.endpoint: SHR δMAP (change in mean arterial pressure)

{"compound": "CC(C)COCC(CN1Cc2ccccc2CCc2ccccc21)N1CCCC1 (stereo not shown)", "result": "-25 mm of Hg"}
{"compound": "CC(C)(C)COCC(CN1Cc2ccccc2Oc2ccccc21)N1CCCC1.O=C(O)/C=C/C(=O)O (stereo not shown)", "result": "-20 mm of Hg"}
{"compound": "CC(C)(C)COCC(CN1Cc2ccccc2Cc2ccccc21)N1CCCC1.O=C(O)/C=C/C(=O)O (stereo not shown)", "result": "-2 mm of Hg"}
{"compound": "CC1(COCC(CN2c3ccccc3C=Cc3ccccc32)N2CCCC2)CCCCC1 (stereo not shown)", "result": "-12 mm of Hg"}
{"compound": "CC1(COCC(CN2c3ccccc3Oc3ccccc32)N2CCCC2)CCCCC1.Cl (stereo not shown)", "result": "-24 mm of Hg"}

Query: Please report the recorded SHR δMAP (change in mean arterial pressure) for CC(C)COCC(CN1c2ccccc2Sc2ccccc21)N1CCCC1 (stereo not shown) .
Response: -19 mm of Hg

Query: Please answer likewise for C=C(C)COCC(CN1c2ccccc2C=Cc2ccccc21)N1CCCC1 (stereo not shown)
Response: -25 mm of Hg
